Listed sequences paired with reported shrunken log2 fold change
tested on: Escherichia coli TOP10; assay: shrunken log2 fold change of peptide-encoding DNA abundance (4.5 h post-induction vs induction); higher = less antimicrobial activity (less host growth inhibition); settings: time post-induction: 4.5 h; library: site-saturation at positions 5, 18, 19, 20
measurement kind: shrunken log2 fold change

RRIRERPPRLPRPRPRPHMQPRP | -0.551
RRIRIRPPRLPRPRPRPFYRPRP | -0.194
RRIRRRPPRLPRPRPRPIDYPRP | -0.029
RRIRLRPPRLPRPRPRPHLAPRP | 0.053
RRIRVRPPRLPRPRPRPVLTPRP | 0.146
RRIRNRPPRLPRPRPRPFYLPRP | -0.0716
RRIRIRPPRLPRPRPRPCKEPRP | 1.82
RRIRARPPRLPRPRPRPDYVPRP | 0.353
RRIRYRPPRLPRPRPRPDKIPRP | -0.155
RRIRFRPPRLPRPRPRPGGTPRP | -0.0188
RRIRSRPPRLPRPRPRPEQIPRP | 0.157
RRIRPRPPRLPRPRPRPFRNPRP | -0.0931
RRIRDRPPRLPRPRPRPNCAPRP | -0.0166
RRIRSRPPRLPRPRPRPHRFPRP | -0.301
RRIRYRPPRLPRPRPRPPMRPRP | 0.317
RRIRVRPPRLPRPRPRPPCQPRP | 0.0844
RRIRKRPPRLPRPRPRPAYIPRP | 0.0173
RRIRCRPPRLPRPRPRPNNWPRP | -0.362
RRIRARPPRLPRPRPRPKMDPRP | 0.384
RRIRHRPPRLPRPRPRPMGPPRP | 0.0818
RRIRWRPPRLPRPRPRPCAYPRP | -0.129
RRIRWRPPRLPRPRPRPIMGPRP | 0.0656
RRIRRRPPRLPRPRPRPSPEPRP | 0.513
RRIRARPPRLPRPRPRPHLTPRP | -0.145
RRIRARPPRLPRPRPRPWIAPRP | -0.0071
RRIRGRPPRLPRPRPRPECWPRP | 1.92
RRIRGRPPRLPRPRPRPRHMPRP | 0.57
RRIRTRPPRLPRPRPRPAVAPRP | 0.422
RRIRMRPPRLPRPRPRPGIYPRP | -0.075
RRIRRRPPRLPRPRPRPCMCPRP | -0.382
RRIRGRPPRLPRPRPRPDIYPRP | 1.05
RRIRLRPPRLPRPRPRPQKNPRP | -0.154

###

test system: Escherichia coli TOP10; test: shrunken log2 fold change of peptide-encoding DNA abundance (4.5 h post-induction vs induction); higher = less antimicrobial activity (less host growth inhibition); details: time post-induction: 4.5 h; library: site-saturation at positions 5, 18, 19, 20
measurement kind: shrunken log2 fold change

RRIRSRPPRLPRPRPRPMASPRP | 0.088
RRIRMRPPRLPRPRPRPLKTPRP | 0.642
RRIRARPPRLPRPRPRPARNPRP | 0.364
RRIRVRPPRLPRPRPRPHVKPRP | -0.0504
RRIRWRPPRLPRPRPRPYREPRP | -0.773
RRIRYRPPRLPRPRPRPWFSPRP | -0.346
RRIRRRPPRLPRPRPRPQGRPRP | 0.544
RRIRIRPPRLPRPRPRPMKPPRP | -0.00581

###

Listed sequences paired with reported shrunken log2 fold change
tested on: Escherichia coli TOP10; assay: shrunken log2 fold change of peptide-encoding DNA abundance (4.5 h post-induction vs induction); higher = less antimicrobial activity (less host growth inhibition); conditions: time post-induction: 4.5 h; library: site-saturation at positions 5, 18, 19, 20
measurement kind: shrunken log2 fold change

RRIRDRPPRLPRPRPRPFMHPRP | -0.148
RRIRFRPPRLPRPRPRPRLFPRP | -0.0286
RRIRERPPRLPRPRPRPWKDPRP | -0.162
RRIRTRPPRLPRPRPRPCEAPRP | 0.114
RRIRERPPRLPRPRPRPCCVPRP | -0.743
RRIRDRPPRLPRPRPRPEKTPRP | 0.0897
RRIRSRPPRLPRPRPRPQCRPRP | -0.0553
RRIRWRPPRLPRPRPRPRFPPRP | 0.304
RRIRLRPPRLPRPRPRPSFKPRP | -0.572
RRIRIRPPRLPRPRPRPNEFPRP | -0.295
RRIRTRPPRLPRPRPRPYHDPRP | -0.13
RRIRSRPPRLPRPRPRPGMCPRP | 0.0439
RRIRIRPPRLPRPRPRPQNKPRP | -0.668
RRIRIRPPRLPRPRPRPMAFPRP | -0.0587
RRIRERPPRLPRPRPRPGCNPRP | -0.0442

###

Listed sequences paired with reported shrunken log2 fold change
test system: Escherichia coli TOP10; test: shrunken log2 fold change of peptide-encoding DNA abundance (4.5 h post-induction vs induction); higher = less antimicrobial activity (less host growth inhibition); conditions: time post-induction: 4.5 h; library: site-saturation at positions 5, 18, 19, 20
measurement kind: shrunken log2 fold change

RRIRARPPRLPRPRPRPNWWPRP | 0.802
RRIRHRPPRLPRPRPRPQSEPRP | -0.314
RRIRIRPPRLPRPRPRPPRFPRP | 0.0593
RRIRHRPPRLPRPRPRPCIIPRP | -0.0445
RRIRRRPPRLPRPRPRPTPEPRP | 0.572
RRIRFRPPRLPRPRPRPSPGPRP | -0.101
RRIRDRPPRLPRPRPRPTNGPRP | -0.0673
RRIRLRPPRLPRPRPRPDFSPRP | 0.177
RRIRKRPPRLPRPRPRPSEKPRP | 0.428
RRIRPRPPRLPRPRPRPEPRPRP | 1.05
RRIRVRPPRLPRPRPRPYPNPRP | 0.0262
RRIRTRPPRLPRPRPRPAGRPRP | 0.352
RRIRERPPRLPRPRPRPYHMPRP | -0.021
RRIRIRPPRLPRPRPRPIYEPRP | -0.107
RRIRMRPPRLPRPRPRPKCVPRP | 0.0964
RRIRARPPRLPRPRPRPCQKPRP | 0.431
RRIRNRPPRLPRPRPRPGCKPRP | -0.00214
RRIRHRPPRLPRPRPRPSWPPRP | -0.00928
RRIRNRPPRLPRPRPRPYCNPRP | -0.672
RRIRYRPPRLPRPRPRPSSGPRP | 0.00646
RRIRWRPPRLPRPRPRPTLCPRP | 0.127
RRIRMRPPRLPRPRPRPWEKPRP | 0.217
RRIRERPPRLPRPRPRPVQMPRP | -0.115
RRIRSRPPRLPRPRPRPDIDPRP | -0.15
RRIRQRPPRLPRPRPRPQHYPRP | -0.447
RRIRERPPRLPRPRPRPTDSPRP | 0.0161
RRIRERPPRLPRPRPRPDITPRP | 3.39
RRIRFRPPRLPRPRPRPIDMPRP | -0.727
RRIRPRPPRLPRPRPRPANEPRP | 0.18
RRIRGRPPRLPRPRPRPDGYPRP | 0.222
RRIRIRPPRLPRPRPRPDVMPRP | -0.17
RRIRTRPPRLPRPRPRPFSCPRP | -0.0158

###

system: Escherichia coli TOP10; assay: shrunken log2 fold change of peptide-encoding DNA abundance (4.5 h post-induction vs induction); higher = less antimicrobial activity (less host growth inhibition); details: time post-induction: 4.5 h; library: site-saturation at positions 5, 18, 19, 20;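 further: peptides expressed intracellularly from a pBAD plasmid library in pooled LB shake-flask culture, induced with 0.3% L-arabinose, DNA abundance read by NGS, three biological replicates, DESeq2 with apeglm shrinkage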
Label t when shrunken log2 fold change is at or above -0.009; otherwise label f.

RRIRTRPPRLPRPRPRPDCCPRP | t
RRIRGRPPRLPRPRPRPCCGPRP | t
RRIRDRPPRLPRPRPRPRNPPRP | f
RRIRERPPRLPRPRPRPRVCPRP | t
RRIRGRPPRLPRPRPRPMHYPRP | f
RRIRIRPPRLPRPRPRPGEYPRP | f
RRIRARPPRLPRPRPRPHWMPRP | t
RRIRKRPPRLPRPRPRPMQWPRP | t
RRIRDRPPRLPRPRPRPTNIPRP | f
RRIRMRPPRLPRPRPRPVAFPRP | t
RRIRARPPRLPRPRPRPMTHPRP | t
RRIRWRPPRLPRPRPRPWQTPRP | f
RRIRNRPPRLPRPRPRPWFMPRP | t
RRIRCRPPRLPRPRPRPECHPRP | t
RRIRERPPRLPRPRPRPNTKPRP | t
RRIRKRPPRLPRPRPRPGMYPRP | t
RRIRWRPPRLPRPRPRPIWYPRP | f
RRIRSRPPRLPRPRPRPKWYPRP | f
RRIRGRPPRLPRPRPRPRLPPRP | t
RRIRIRPPRLPRPRPRPLAYPRP | f
RRIRWRPPRLPRPRPRPCACPRP | t
RRIRDRPPRLPRPRPRPIYTPRP | f
RRIRDRPPRLPRPRPRPRPIPRP | t
RRIRERPPRLPRPRPRPVGIPRP | t
RRIRRRPPRLPRPRPRPIYLPRP | f
RRIRNRPPRLPRPRPRPMDNPRP | f
RRIRMRPPRLPRPRPRPNDCPRP | t
RRIRCRPPRLPRPRPRPKEIPRP | t
RRIRLRPPRLPRPRPRPWWWPRP | t
RRIRDRPPRLPRPRPRPIIIPRP | f
RRIRKRPPRLPRPRPRPIMHPRP | f
RRIRGRPPRLPRPRPRPIGFPRP | t
